Provenance of the data: PubChem BioAssay

Each entry below lists one item and its recorded GLP1 secretion stimulation value.
# procedureText: glucagon-like peptide 1 release enhancers, primary assay, NCI-H716 cell line, NPC library (AID 1117341); also: reference of the scale not given here
# assayConditions: NCI-H716 cells, at 10 µM, stronger effect = higher value
Lab book: enter the figure in %, no units written.

[
  {
    "compound": "O=C1[C@H](CC[C@H](O)c2ccc(F)cc2)[C@@H](c2ccc(O)cc2)N1c1ccc(F)cc1",
    "GLP1 secretion stimulation [%]": 7.4
  },
  {
    "compound": "CCOC(=O)COc1ccc2c(C)c(CCN(CC)CC)c(=O)oc2c1Cl",
    "GLP1 secretion stimulation [%]": 2.5
  }
]

Would you kindly share the measured GLP1 secretion stimulation for CCOC(=O)c1c(N)sc2c1CCN(Cc1ccccc1)C2 ?
0.5

Please look up its GLP1 secretion stimulation: C=CCOc1cc(Cl)ccc1C(=O)NCCN(CC)CC
9.1

What GLP1 secretion stimulation value was documented for this compound, CC(C)(C)C(=O)NCCCC(=O)O ?
-3.9

Data request, read-out GLP1 secretion stimulation, for O=C(O)CC(O)C(=O)O (stereo unspecified)
1.3

---

# procedureText: growth inhibition of GSK3B-pretreated HCT116 cells – cell-based, CellTiter-Glo, 0.2 to 20 µM (AID 1117336)
# assayConditions: HCT116 viability after GSK3B inhibitor, at 20 µM
Active and inactive are the calls of the source.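 The calls were made as follows: active = compounds lowering colon cancer cell viability after pretreatment blocking the GSK3B kinase; inactive = the rest.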
Entry note: the call must match one of 1 (yes) = active, 0 (no) = inactive

Answered cases to consult:
[
  {
    "molecule": "CC(=O)OCC(=O)[C@@]12OC(C)(C)O[C@@H]1C[C@H]1[C@@H]3C[C@H](F)C4=CC(=O)C=C[C@]4(C)[C@@]3(F)[C@@H](O)C[C@@]12C",
    "classAssignment": "0 (no)"
  },
  {
    "molecule": "CC(=O)S[C@@H]1CC2=CC(=O)CC[C@]2(C)[C@H]2CC[C@@]3(C)[C@@H](CC[C@@]34CCC(=O)O4)[C@H]12",
    "classAssignment": "0 (no)"
  },
  {
    "molecule": "CN(C)CCC[C@@]1(c2ccc(F)cc2)OCc2cc(C#N)ccc21",
    "classAssignment": "0 (no)"
  },
  {
    "molecule": "CCCCCCCCCCCCSCCOCCO",
    "classAssignment": "0 (no)"
  },
  {
    "molecule": "CC(=O)Nc1ccc(OCCOCCOc2ccc(NC(C)=O)cc2)cc1",
    "classAssignment": "0 (no)"
  }
]

Could you please tell me the result logged for CC(C)(C)NCC(O)COc1ccccc1OCC1CCCO1 (stereo not given) in this assay?
0 (no)

So what was the verdict on C[C@]12C=CC(=O)C=C1CC[C@@H]1[C@@H]2C(=O)C[C@@]2(C)[C@H]1CC[C@]2(O)C(=O)CO in this test?
0 (no)

// param item: O=C(O)CC(O)C(=O)O (stereo not given) ; yields the recorded call
0 (no)

Record request — test call for CN1CCN(C(=O)C2CCCCC2)CC1
0 (no)

Answer briefly: the call reported for Cc1c(C)c2c(c(C)c1OC(=O)CCC(=O)O)CC[C@@](C)(CCC[C@H](C)CCC[C@H](C)CCCC(C)C)O2 in this assay.
0 (no)

Name the outcome recorded for O=C1CC2(CCCC2)CC(=O)N1 in the assay.
0 (no)

How did this test come out for Cc1oc(-c2ccccc2)nc1CCC(=O)c1ccc(CC2SC(=O)NC2=O)cc1 (stereo not given) ?
1 (yes)

---

# System: R275C/beta2Delta
# procedureText: modulators of BK channel variants, profiling panel, selectivity assay, cell-based, U2OS BacMam, thallium flux, beta subunits (AID 1259406);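 also: initial slope of Thallos dye fluorescence rise after thallium is added; log ratio against the mean of 0.3% DMSO vehicle wells on the same plate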
# assayConditions: at 30 µM
Rule: t for log fold change Tl+ flux not less than 0.05, f for anything less.

Solved cases (5 shown):
[
  {
    "compound": "CC1(C)O[C@@H]2C[C@H]3[C@@H]4CCC5=CC(=O)C=C[C@]5(C)[C@@]4(F)[C@@H](O)C[C@]3(C)[C@]2(C(=O)CO)O1",
    "classAssignment": "t"
  },
  {
    "compound": "NC12CC3CC(CC(C3)C1)C2",
    "classAssignment": "f"
  },
  {
    "compound": "CCN(CC)CCNC(=O)c1ccc(N)cc1",
    "classAssignment": "f"
  },
  {
    "compound": "CCc1cccc2c3c([nH]c12)C(CC)(CC(=O)O)OCC3 (stereo unspecified)",
    "classAssignment": "t"
  },
  {
    "compound": "C/C=C/C(=O)N(CC)c1ccccc1C",
    "classAssignment": "f"
  }
]

Is log fold change Tl+ flux at least 0.05? Consider CC(=O)O[C@]1(C(C)=O)CC[C@H]2[C@@H]3C=C(C)C4=CC(=O)CC[C@]4(C)[C@H]3CC[C@@]21C
f

Does log fold change Tl+ flux meet or surpass 0.05 for O=C1[C@H](CC[C@H](O)c2ccc(F)cc2)[C@@H](c2ccc(O)cc2)N1c1ccc(F)cc1 ?
t

State whether the measured log fold change Tl+ flux reaches 0.05, counting equality as reaching it, for COc1cc2nc(N3CCN(C(=O)c4ccco4)CC3)nc(N)c2cc1OC
f

Kindly determine if log fold change Tl+ flux recorded for S=c1nc[nH]c2nc[nH]c12 is above or exactly 0.05.
f

Check the entry COc1cc([C@@H]2c3cc4c(cc3[C@H](O)[C@H]3COC(=O)[C@H]23)OCO4)cc(OC)c1OC : does log fold change Tl+ flux equal or exceed 0.05?
f

---

# Test system: R275C
# procedureText: modulators of BK channel variants, profiling panel, selectivity assay, cell-based, U2OS BacMam, thallium flux, beta subunits (AID 1259406);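 also: initial slope of Thallos dye fluorescence rise after thallium is added; log ratio against the mean of 0.3% DMSO vehicle wells on the same plate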
# assayConditions: at 30 µM
# Lookup of reported log fold change Tl+ flux keyed by entry
Quick one: just the number, no unit, thanks!

[
  {
    "molecule": "CC1COc2c(N3CCN(C)CC3)c(F)cc3c(=O)c(C(=O)O)cn1c23 (configuration not stated)",
    "property": "log fold change Tl+ flux",
    "assayResult": 0.0249
  },
  {
    "molecule": "OCCN1CCN(CCCN2c3ccccc3Sc3ccc(C(F)(F)F)cc32)CC1",
    "property": "log fold change Tl+ flux",
    "assayResult": -0.11
  },
  {
    "molecule": "O=C(O)CCCc1ccccc1",
    "property": "log fold change Tl+ flux",
    "assayResult": -0.048
  },
  {
    "molecule": "OCCN1CCN(CCCN2c3ccccc3Sc3ccc(Cl)cc32)CC1",
    "property": "log fold change Tl+ flux",
    "assayResult": -0.201
  },
  {
    "molecule": "COc1c(N2CCNC(C)C2)c(F)cc2c(=O)c(C(=O)O)cn(C3CC3)c12 (configuration not stated)",
    "property": "log fold change Tl+ flux",
    "assayResult": -0.0278
  }
]

Lab note: next molecule to report on.
Reported log fold change Tl+ flux, molecule CCCCCCCCCCC[C@@H](C[C@@H]1OC(=O)[C@H]1CCCCCC)OC(=O)[C@H](CC(C)C)NC=O : ____
-0.0306

---

# testedSystem: Cellular tumor antigen p53 (Homo sapiens)
# procedureText: kinase inhibitors altering GFP-p53 stability in HPV16-positive cells, imaging, known kinase inhibitor set, EGFP/DsRed ratio (AID 1053116);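 also: cells exposed to compounds for 24 h at 37 °C before reading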
# assayConditions: stronger effect = higher value; measured here: GFP-p53 positive objects count
property: EGFP object count
Reply with the value as a number alone.

Past entries and their recorded results:
[
  {
    "molecule": "Fc1ccc(Nc2nccc(-c3c(-c4ccc(C(F)(F)F)cc4)nn4ncccc34)n2)cc1F",
    "assayResult": 5.5
  },
  {
    "molecule": "COc1ccc2ncn(-c3cc(O[C@H](C)c4ccccc4C(F)(F)F)c(C(N)=O)s3)c2c1",
    "assayResult": 7.5
  },
  {
    "molecule": "O=C1NC(=NCc2ccccc2Cl)SC1=Cc1ccc2ncccc2c1",
    "assayResult": 9
  }
]

Requested read-out: EGFP object count. Entry: Cn1cc(C2=C(c3cn(-c4ccccc4)c4ccccc34)C(=O)NC2=O)c2ccccc21
3

State the recorded EGFP object count for this entry: Fc1cccc(COc2ccc(Nc3ncnc4cc(-c5ccc[nH]5)sc34)cc2Cl)c1
3

May I ask what EGFP object count has been recorded for COc1ccc2ncnc(Nc3ccc(OCc4ccccc4)cc3)c2c1 ?
4

Can you look up the measured EGFP object count of COC(=O)Nc1nc2ccc(Oc3cccc(NC(=O)Nc4cc(C(F)(F)F)ccc4F)c3)cc2[nH]1 for me?
4

Quick one: EGFP object count of Cn1c(=O)c(Oc2ccc(F)cc2F)cc2cnc(NC3CCC(O)CC3)nc21 (stereo unspecified) ?
5

So what's the measured EGFP object count for this one? NC(=O)c1sc(-n2cnc3ccc(C(F)(F)F)cc32)cc1OCc1ccccc1Br
4

Request the reported EGFP object count associated with c1cc(-c2cnn3nc(N4CCOCC4)ccc23)nc(NC2CC2)n1
3.5
